Numbers sourced from paper PMC12155096.

I'd appreciate it if you could supply CYP2C9 Efficacy (in parenthesis) values for the items below.

Inquiry: Tell me reported CYP2C9 Efficacy (in parenthesis) for CCCCCCCCCCCCCCCCCC(=O)O.OCCN(CCO)CCO [Triethanolamine stearate] , tested with human CYP2C9 (Homo sapiens, UniProt P11712).
Sequence (P11712 whole entry): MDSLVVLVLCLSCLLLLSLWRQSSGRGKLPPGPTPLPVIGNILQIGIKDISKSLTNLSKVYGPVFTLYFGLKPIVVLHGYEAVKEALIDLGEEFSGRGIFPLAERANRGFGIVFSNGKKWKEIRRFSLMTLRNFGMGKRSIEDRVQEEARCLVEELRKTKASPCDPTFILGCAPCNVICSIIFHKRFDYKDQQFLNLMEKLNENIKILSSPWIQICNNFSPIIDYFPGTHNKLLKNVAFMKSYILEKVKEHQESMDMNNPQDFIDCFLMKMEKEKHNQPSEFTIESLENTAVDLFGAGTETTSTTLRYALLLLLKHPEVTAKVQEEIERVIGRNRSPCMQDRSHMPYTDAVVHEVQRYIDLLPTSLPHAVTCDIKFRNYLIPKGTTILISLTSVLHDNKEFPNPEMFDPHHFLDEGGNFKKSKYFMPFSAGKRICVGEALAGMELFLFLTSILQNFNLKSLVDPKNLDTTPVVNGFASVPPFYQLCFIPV
Reply text: 1.38 ± 0.34 (-98 ± 6) %

Inquiry: Tell me reported CYP2C9 Efficacy (in parenthesis) for C=CC(=O)OCC(CO)(COCC(COC(=O)C=C)(COC(=O)C=C)COC(=O)C=C)COC(=O)C=C [Dipentaerythritol pentaacrylate] , tested with human CYP2C9 (Homo sapiens, UniProt P11712).
Reply text: 7.3 ± 0.49 (-101 ± 2) %

Inquiry: Tell me reported CYP2C9 Efficacy (in parenthesis) for Cl.Clc1ccc(Cn2c(CN3CCCC3)nc3ccccc32)cc1 [Clemizole hydrochloride] , tested with human CYP2C9 (Homo sapiens, UniProt P11712).
Reply text: 16.12 ± 1.09 (-82 ± 4) %
